Ref: the supplement of paper PMC10567573

B1: CDC14A (parent)
chain: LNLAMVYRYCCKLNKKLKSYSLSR

variants of: B1; assay: protein stability index of a GFP-peptide fusion (GPS, HEK-293T) (PSI 1-6); higher = more stable; conditions: c terminus: a fixed tail appended;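 note: lentivirally expressed fusions sorted by FACS into six bins by GFP to DsRed ratio, PSI derived from sequencing read proportions per bin multiplied by bin number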

>  <RESIDUE_SEQUENCE>
LNLAMVYRYCCKLNVKLKSYSLSR [K15V]

>  <protein stability index>
3.04

$$$$
>  <RESIDUE_SEQUENCE>
LNLAMVYRYCCKLNKKPKSYSLSR [L17P]

>  <protein stability index>
3.05

$$$$
>  <RESIDUE_SEQUENCE>
LNLAMVYRYCCQLNKKLKSYSLSR [K12Q]

>  <protein stability index>
3.04

$$$$
>  <RESIDUE_SEQUENCE>
LNLAMCYRYCCKLNKKLKSYSLSR [V6C]

>  <protein stability index>
3.05

$$$$
>  <RESIDUE_SEQUENCE>
LNLAMVYRYCCKANKKLKSYSLSR [L13A]

>  <protein stability index>
2.92

$$$$
>  <RESIDUE_SEQUENCE>
LNLAMVYRYCCKLNKKMKSYSLSR [L17M]

>  <protein stability index>
3.07

$$$$
